Readings of pEC50 for the listed compounds
TESTED SYSTEM: Nurr1:RXRα heterodimer (Homo sapiens (Human))
Sequence (P19793 whole entry): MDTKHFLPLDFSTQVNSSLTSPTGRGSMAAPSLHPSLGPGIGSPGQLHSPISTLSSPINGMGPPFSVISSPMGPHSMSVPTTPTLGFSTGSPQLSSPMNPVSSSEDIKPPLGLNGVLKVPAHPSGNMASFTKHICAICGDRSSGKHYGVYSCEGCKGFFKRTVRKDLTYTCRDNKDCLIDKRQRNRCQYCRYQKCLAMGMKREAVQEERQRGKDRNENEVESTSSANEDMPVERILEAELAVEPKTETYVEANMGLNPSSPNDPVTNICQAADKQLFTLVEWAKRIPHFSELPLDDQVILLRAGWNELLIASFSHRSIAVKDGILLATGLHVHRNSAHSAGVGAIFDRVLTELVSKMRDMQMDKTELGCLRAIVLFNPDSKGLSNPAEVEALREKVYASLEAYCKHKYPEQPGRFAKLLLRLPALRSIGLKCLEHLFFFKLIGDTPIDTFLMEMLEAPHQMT
Sequence (P43354 whole entry partner): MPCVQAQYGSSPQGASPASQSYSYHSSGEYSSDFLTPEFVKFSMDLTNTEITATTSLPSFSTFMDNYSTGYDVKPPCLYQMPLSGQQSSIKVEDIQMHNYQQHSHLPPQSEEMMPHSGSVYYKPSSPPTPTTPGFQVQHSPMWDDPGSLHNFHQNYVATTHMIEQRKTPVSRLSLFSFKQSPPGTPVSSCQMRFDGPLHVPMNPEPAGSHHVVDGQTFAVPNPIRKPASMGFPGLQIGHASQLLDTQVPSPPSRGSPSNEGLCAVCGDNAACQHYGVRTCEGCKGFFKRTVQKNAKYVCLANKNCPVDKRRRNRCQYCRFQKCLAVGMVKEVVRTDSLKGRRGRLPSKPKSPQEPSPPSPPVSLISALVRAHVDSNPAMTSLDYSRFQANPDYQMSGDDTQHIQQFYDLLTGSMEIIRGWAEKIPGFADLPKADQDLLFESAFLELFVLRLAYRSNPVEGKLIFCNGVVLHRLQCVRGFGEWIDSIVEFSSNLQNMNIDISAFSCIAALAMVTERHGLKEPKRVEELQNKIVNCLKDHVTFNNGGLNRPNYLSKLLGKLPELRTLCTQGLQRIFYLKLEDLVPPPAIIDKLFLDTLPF
EXPERIMENTAL DETAILS: Nurr1:RXRα-dependent luciferase reporter (DR5-TK-Luc) transactivation assay
SETTINGS: SHSY-5Y cells co-transfected with human Nurr1, RXRα and DR5-TK-Luc
pEC50: −log10 of the molar value.

STRUCTURE NOTATION	TESTED SYSTEM	pEC50
C=CCc1c(C)nc(-c2ccccc2)nc1Nc1ccc(C(=O)OCCCOc2ccc(C[C@H](N)C(=O)O)cc2)cc1	Nurr1:RXRα heterodimer (Homo sapiens (Human))	5.30
C=CCc1c(C)nc(-c2ccccc2)nc1Nc1ccc(C(=O)OCOC(=O)C(C)(C)C)cc1	Nurr1:RXRα heterodimer (Homo sapiens (Human))	5.70
Cc1nc(-c2ccccc2)nc2c1cc(C)n2-c1ccc(C(=O)O)cc1	Nurr1:RXRα heterodimer (Homo sapiens (Human))	5.60
C=CCc1c(C)nc(-c2ccccc2)nc1Nc1ccc(C(=O)Oc2ccc(C[C@H](N)C(=O)O)cc2)cc1	Nurr1:RXRα heterodimer (Homo sapiens (Human))	5.00
Cc1nc(-c2ccccc2)nc2c1cc(C)n2-c1ccc(C(=O)O)cc1Br	Nurr1:RXRα heterodimer (Homo sapiens (Human))	6.15
